Experiment: VP16 transactivation inhibitors, counter-screen for SRC1 inhibitor project, cell-based, luminescence, high throughput (AID 588824)
Conditions: cell-based VP16 transactivation luciferase luminescence; at 3.6 µM
Calls of active or inactive are those of the source. No stated cut-off is given here; in the data, active means inhibition above about 25%; inactive means the rest.
Labels: active, inactive

- Cc1cccc(-n2c(N)c(-c3nc4ccccc4n3C)c3nc4ccccc4nc32)c1: inactive
- CCn1cc(C(=O)NCC(OC)OC)c(=O)c2cc(S(=O)(=O)N(C)C3CCCCC3)ccc21: inactive
- N=c1c2c(n(Cc3ccc(Br)cc3)c3c1CCC3)CCCC2: active
- Cc1csc(-c2cc(C(=O)NCc3cc(C(F)(F)F)cc(C(F)(F)F)c3)n[nH]2)c1: active
- CN(Cc1ccccc1)C(=O)c1ccc(NC(=O)C2CCCN(C(=O)OC(C)(C)C)C2)cc1 (stereo not given): inactive

====

Assay: VP16 transactivation inhibitors, counter-screen for SRC1 inhibitor project, cell-based, luminescence, high throughput (AID 588824)
Conditions: cell-based VP16 transactivation luciferase luminescence; at 3.6 µM
Activity calls are given as the source filed them. Cut-off read from the data, not from the text of the source: active = inhibition above about 25%; inactive = the rest.
Labels: active, inactive

• Cc1ccc(S(=O)(=O)N(C)Cc2ccc(C(=O)N/N=C/c3ccc(OC(F)F)cc3OC(F)F)cc2)cc1 = inactive
• Clc1cncc(Cl)c1N/N=C/c1ccncc1 = active
• CN(C)C=Nc1ncc2c3ccccc3n(CCN(C)C)c2c1C#N = active
• C=CCn1c(C)cc(C(=O)COc2ccc(C)nc2[N+](=O)[O-])c1C = inactive
• CC(=O)c1c(C)n(-c2ccccc2)c2ccc(O)cc12 = active
• CCOC(=O)c1c(C)n(C)c2ccc(OC)c(NC(=O)c3cccs3)c12 = active
• COc1cc2cc[n+](Cc3ccc([N+](=O)[O-])cc3)cc2cc1OC = inactive
• O=c1[nH]cnc2sc3c(c12)CCCC3 = inactive
• CCN1/C(=C/C(C)=C/c2sc3ccccc3[n+]2CC)Sc2ccccc21 = active
• FC(F)(F)c1cccc(Oc2ccc3c(C(F)(F)F)cc(C(F)(F)F)nc3n2)c1 = inactive
• Cc1ccc(C)c(S(=O)(=O)N2CCN(C(=O)C3CCN(C(=O)c4ccc(F)cc4)CC3)CC2)c1 = inactive
• Cc1ccc(C(C)C)c(OCc2ccc(C(=O)N/N=C/c3ccc(O)cc3O)cc2)c1 = active
• Cc1ccc(/C=C2\SC(=S)N(CCCC(=O)Nc3ccccn3)C2=O)cc1 = active
• Cc1ccc(C(=O)NCCn2cc(SCC(=O)Nc3nnc(C)s3)c3ccccc32)cc1 = inactive
• Cc1cccc(NC(=O)C2CCN(S(=O)(=O)c3ccc4c(c3)OCCCO4)CC2)n1 = inactive
• CC[n+]1c(/C=C/Nc2ccccc2)oc2ccccc21 = active
• CC(C)CC(=NNC(=O)c1ccncc1)c1cc(Cl)ccc1O = active
• CCCCN(c1ccccc1)c1ncnc(N)c1[N+](=O)[O-] = active
• Cc1cc(OCC(O)CN2CCc3ccccc3C2)cc(C(C)C)c1 (configuration not stated) = inactive
• CN(Cc1cnc2nc(N)nc(N)c2n1)c1ccc(C(=O)NC(CCC(=O)O)C(=O)O)cc1C(F)(F)F (configuration not stated) = inactive
• COc1ccc2cc3c(N)nn(C(=O)c4ccccc4Cl)c3nc2c1 = active
• COc1cccc(C(c2c(NC(=O)c3ccco3)sc(C)c2C)N2CCOCC2)c1 (configuration not stated) = inactive
